Target: ATP-binding cassette sub-family C member 2 (Homo sapiens, UniProt Q92887)
Sequence (Q92887 whole entry): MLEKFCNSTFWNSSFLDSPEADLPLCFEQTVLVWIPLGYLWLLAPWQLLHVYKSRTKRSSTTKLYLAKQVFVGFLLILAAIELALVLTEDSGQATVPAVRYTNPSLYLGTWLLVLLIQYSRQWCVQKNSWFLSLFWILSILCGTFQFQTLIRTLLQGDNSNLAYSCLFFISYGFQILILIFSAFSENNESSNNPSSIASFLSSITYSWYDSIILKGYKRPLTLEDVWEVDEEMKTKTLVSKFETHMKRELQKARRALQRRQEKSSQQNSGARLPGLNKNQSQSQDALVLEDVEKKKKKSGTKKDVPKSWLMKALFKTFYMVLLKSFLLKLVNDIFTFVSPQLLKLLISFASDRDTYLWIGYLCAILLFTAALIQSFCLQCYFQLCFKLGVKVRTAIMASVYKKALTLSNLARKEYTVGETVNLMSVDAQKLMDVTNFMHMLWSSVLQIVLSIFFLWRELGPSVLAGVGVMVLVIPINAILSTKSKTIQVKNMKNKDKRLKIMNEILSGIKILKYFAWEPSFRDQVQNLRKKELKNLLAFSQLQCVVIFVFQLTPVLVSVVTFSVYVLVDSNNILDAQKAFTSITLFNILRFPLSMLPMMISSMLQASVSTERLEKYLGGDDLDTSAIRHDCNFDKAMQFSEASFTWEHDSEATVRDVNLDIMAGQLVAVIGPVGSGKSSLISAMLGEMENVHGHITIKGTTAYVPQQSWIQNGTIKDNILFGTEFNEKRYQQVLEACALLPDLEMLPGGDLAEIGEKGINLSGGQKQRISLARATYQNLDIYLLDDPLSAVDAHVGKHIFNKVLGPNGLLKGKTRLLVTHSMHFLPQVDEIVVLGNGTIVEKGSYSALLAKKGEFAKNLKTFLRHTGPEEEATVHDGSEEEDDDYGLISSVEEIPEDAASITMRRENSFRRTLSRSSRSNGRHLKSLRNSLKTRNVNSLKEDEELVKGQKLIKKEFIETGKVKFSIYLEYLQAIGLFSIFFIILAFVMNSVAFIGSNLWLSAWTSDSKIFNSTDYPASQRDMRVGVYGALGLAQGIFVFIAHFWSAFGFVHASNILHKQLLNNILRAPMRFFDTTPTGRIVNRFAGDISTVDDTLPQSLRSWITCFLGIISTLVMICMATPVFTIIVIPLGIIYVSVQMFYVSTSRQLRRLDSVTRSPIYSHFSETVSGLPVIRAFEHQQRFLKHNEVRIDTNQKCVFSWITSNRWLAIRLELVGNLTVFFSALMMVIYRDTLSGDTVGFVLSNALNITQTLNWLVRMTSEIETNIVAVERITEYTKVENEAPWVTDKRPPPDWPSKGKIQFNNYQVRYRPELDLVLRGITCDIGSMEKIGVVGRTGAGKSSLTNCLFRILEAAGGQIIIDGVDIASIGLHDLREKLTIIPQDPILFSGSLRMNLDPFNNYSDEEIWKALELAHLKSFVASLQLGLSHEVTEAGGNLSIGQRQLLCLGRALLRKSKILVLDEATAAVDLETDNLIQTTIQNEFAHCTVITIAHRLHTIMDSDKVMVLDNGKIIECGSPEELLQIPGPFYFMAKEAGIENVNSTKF
Experiment: Inhibition of human MRP2 expressed in dog MDCK2 cells
Assay type: cell-based, MDCK-II
propertyMeasured: IC50 (µM)

If you can, please state the reported IC50 value of O=C(O)c1ccc(Nc2nc3sc4c(c3c(=O)s2)CCCC4)cc1 .
21.5

[A] COc1ccc2c(c1)c(CC(=O)O)c(C)n2C(=O)c1ccc(Cl)cc1
[B] CN(C)C(=O)CCSC(SCCC(=O)[O-])c1cccc(/C=C/c2ccc3ccc(Cl)cc3n2)c1.[Na+] (centres undefined)
Lower IC50: A or B ? Reply with the label of the item you choose.
B
(B: 20.7 µM, A: 235 µM)

Every entry's value here was drawn from ChEMBL document CHEMBL1140042.
